Reference source for all entries: paper PMC10108266

# EXPERIMENTAL_PROTOCOL: Pooled JACKPOT2/JACKPOT3 SAD analysis of the effect of race on PK
# Format: in vivo, human
# CONDITIONS: human, plasma, oral, Caucasian, single dose, ANOVA; read-out: Vz/F, GLS Mean
QUANTITY: Vd/F (L)
State just the number; it will be interpreted in L.

Exercise: Recall and state the measured Vd/F for COc1nn(C)cc1Nc1nccc(-c2c[nH]c3c(NC(=O)[C@@H](C)N4CCN(C)CC4)cccc23)n1 .
Key: 1350

###

# EXPERIMENTAL_PROTOCOL: JACKPOT2 single-ascending-dose plasma PK, healthy participants in USA
# Assay type: in vivo, human
# CONDITIONS: human, plasma, oral; single dose 100 mg; geometric mean (CV%)
QUANTITY: AUC(0-inf) (ng·h/mL)
Respond with the bare value in ng·h/mL.

Exercise: Specify AUC(0-inf) for COc1nn(C)cc1Nc1nccc(-c2c[nH]c3c(NC(=O)[C@@H](C)N4CCN(C)CC4)cccc23)n1 and stop.
Key: 5260

###

# EXPERIMENTAL_PROTOCOL: JACKPOT2 multiple-ascending-dose plasma PK (once daily, 14 days)
# Type: in vivo, human
# CONDITIONS: human, plasma, oral, 25 mg, 25 mg once daily, Day 1; median (min, max)
QUANTITY: Tmax (h)
Give a bare numeral; the unit h is implied.

Exercise: Supply reported Tmax belonging to this compound: COc1nn(C)cc1Nc1nccc(-c2c[nH]c3c(NC(=O)[C@@H](C)N4CCN(C)CC4)cccc23)n1 [golidocitinib]
Key: 6

###

# EXPERIMENTAL_PROTOCOL: Pooled JACKPOT2/JACKPOT3 SAD analysis of the effect of race on PK
# Format: in vivo, human
# CONDITIONS: human, plasma, oral, Caucasian, n 6, single dose; read-out: Vz/F, Geometric Mean (CV%)
QUANTITY: Vd/F (L)
Return type: number; implicit unit L.

Exercise: Supply measured Vd/F of COc1nn(C)cc1Nc1nccc(-c2c[nH]c3c(NC(=O)[C@@H](C)N4CCN(C)CC4)cccc23)n1 [golidocitinib] in your reply.
Key: 1350

###

# EXPERIMENTAL_PROTOCOL: Pooled JACKPOT2/JACKPOT3 SAD analysis of the effect of race on PK
# Format: in vivo, human
# CONDITIONS: human, plasma, oral, Asian, single dose, ANOVA; read-out: Vz/F, GLS Mean
QUANTITY: Vd/F (L)
Give your result in L as a bare value.

Exercise: Please give measured Vd/F of the following entry: COc1nn(C)cc1Nc1nccc(-c2c[nH]c3c(NC(=O)[C@@H](C)N4CCN(C)CC4)cccc23)n1
Key: 1020

###

# EXPERIMENTAL_PROTOCOL: JACKPOT3 single-ascending-dose plasma PK, healthy Chinese participants
# Type: in vivo, human
# CONDITIONS: human, plasma, oral; single dose 50 mg; median (min, max); read-out: t1/2 (converted)
QUANTITY: half-life (h)
The response must be a number in h with no trailing unit.

Exercise: Determine its reported half-life: COc1nn(C)cc1Nc1nccc(-c2c[nH]c3c(NC(=O)[C@@H](C)N4CCN(C)CC4)cccc23)n1 [golidocitinib]
Key: 39.1

###

# EXPERIMENTAL_PROTOCOL: JACKPOT2 multiple-ascending-dose plasma PK (once daily, 14 days)
# Type: in vivo, human
# CONDITIONS: human, plasma, oral, 100 mg, 100 mg once daily, Day 14; geometric mean (CV%)
QUANTITY: Cmax
Note: a bare number is incomplete; add the unit.

Exercise: Name the recorded Cmax of the compound listed here: COc1nn(C)cc1Nc1nccc(-c2c[nH]c3c(NC(=O)[C@@H](C)N4CCN(C)CC4)cccc23)n1
Key: 375 ng/mL
